tested on: Nucleic Acid; assay: Induction of Escherichia coli pBR322 DNA cleavage assessed as open circular form of DNA at 25 uM after 45 mins by agarose gel electrophoresis in presence of copper; format: nucleic-acid assay
Active and inactive are the calls of the source. The calls are words filed in the database; no cut-off is given here.
Response enum: yes = active, no = inactive

Here's what some known entries look like.
| SMILES STR | CLASSIFICATION |
| --- | --- |
| O=C(CCCCCCCCc1ccc(O)cc1)c1c(O)cccc1O | yes |
| O=C(CCCCCCCCc1ccccc1)c1c(O)cccc1O | no |
| O=C(CCCCCCCCc1ccc(O)c(O)c1)c1c(O)cccc1O | yes |

Now take the following molecule into account.
Any idea what this test logged for O=C(CCCCCCCCc1ccc2c(c1)OCO2)c1c(O)cccc1O ? yes

// provenance: ChEMBL document CHEMBL1250531
